Sourced from paper PMC5540273

Tested on: GCN2(Kin.Dom.2,S808G)
Construct: gene EIF2AK4
Conditions: concentration: 1 μM,replicates: in singlicate; n = 1;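 also: KINOMEscan kinase panel screen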
PARAMETER: %Inh (%)
Just the number please, in %, no unit attached.

May I ask what %Inh has been recorded for CCOC(=O)N1CCC(n2cnc(-c3ccc(F)cc3)c2-c2ccnc(N)n2)CC1 ?
44

Could you tell me which %Inh is on file for Cc1ccc2c(-c3ccnc(Nc4ccc(C(F)(F)F)cc4)n3)cnn2n1 ?
3

Item under review: CS(=O)(=O)c1cccc(CNc2nc(Nc3ccc4c(c3)[C@@H]3C[C@@H]4CNC3=O)ncc2C(F)(F)F)c1 . Reported %Inh?
57

What does the record list as %Inh for COc1cccc(CNC(=O)NC2CCN(c3ccnc(Nc4cc(OC)c(OC)c(OC)c4)n3)C2)c1 (stereo not drawn) ?
0

What does the record list as %Inh for FC(F)(F)c1cc(Br)cc(Nc2nccc(-c3cnn4ncccc34)n2)c1 ?
12

May I ask what %Inh has been recorded for C[C@@H]1CNc2c(sc3ccc4nc(-c5ccc(O)cc5)ccc4c23)C(=O)N1 ?
12

Quick one: %Inh of CC(C)S(=O)(=O)N1CCN(Cc2ccc3c(c2)nc(NC(=O)c2ccsc2)n3C[C@H](O)c2ccccc2)CC1 ?
10

Quick one: %Inh for Cn1ccc2ncnc(Oc3ccc(NC(=O)Nc4cnn(C(C)(C)C)c4)c(Cl)c3)c21 ?
23

// %Inh lookup, key: CS(=O)c1ccc(-c2coc3ccc(-c4n[nH]c(=O)o4)cc23)cc1 (stereo not drawn)
21

Record request: %Inh value, item C[C@@H](Oc1cc(-n2cnc3cc(-c4cnn(C)c4)ccc32)sc1C(N)=O)c1ccccc1Cl
99.2

Which %Inh is reported for this compound? Cn1ccc2ncnc(Oc3ccc(NC(=O)Nc4cccc(C(F)(F)F)c4)c(Cl)c3)c21
21

Reported %Inh, compound Cc1ccn2nc(-c3ccc(F)cc3)c(-c3ccncc3)c2c1.Cl : ____
0

* * *

Tested on: HIPK4
Settings: concentration: 1 μM,replicates: in singlicate; n = 1
Can you tell me %Inh for the items I'm about to list?
The reply should contain only the number, in %.

Could you share which %Inh value was measured for CCOC(=O)N1CCC(n2cnc(-c3ccc(F)cc3)c2-c2ccnc(N)n2)CC1 [SB-219952] ?
0

I have this compound here, Cn1ccc2ncnc(Oc3ccc(NC(=O)Nc4cnn(C(C)(C)C)c4)c(Cl)c3)c21 , and I need its recorded %Inh.
1

GET /values?readout=%Inh&item= O=C(Nc1ccccc1)c1cccc(Oc2ccc3nccn3n2)c1
32

%Inh lookup needed for Cn1ccc2ncnc(Oc3ccc(NC(=O)Nc4ccnc(C(F)(F)F)c4)c(Cl)c3)c21 , thanks.
0

Consider the compound shown here: COc1cc(Nc2nccc(N3CCC(NC(=O)c4cccc(C#N)c4)C3)n2)cc(OC)c1OC (centres unmarked) [GSK1379751] What is its recorded %Inh?
0

* * *

Test system: ASK1
Construct: gene MAP3K5
Conditions: concentration: 1 μM,replicates: in singlicate; n = 1
Each entry gets condition not met if its %Inh stays under 1%, and condition met if its %Inh is 1% or above.

Answer whether %Inh of Nc1nccc(-c2ccc3c(N)n[nH]c3c2)n1 is greater than or equal to 1%.
condition not met

// inclusive: %Inh at least 1%? input: Cc1ccc2c(-c3ccnc(Nc4ccc(C(F)(F)F)cc4)n3)cnn2n1
condition not met

Is reported %Inh greater than or equal to 1% here: CCn1c(-c2nonc2N)nc2cncc(CNC3CCNCC3)c21.Cl
condition met

Could you verify whether the entry CNC(=O)c1ccccc1Nc1nc(Nc2cccc(CS(C)(=O)=O)c2)ncc1C.O=CO shows %Inh of no less than 1%?
condition not met

Is it the case that Cn1ccc2ncnc(Oc3ccc(NC(=O)Nc4ccnc(C(F)(F)F)c4)c(Cl)c3)c21 has %Inh reaching or exceeding 1%?
condition not met

Is %Inh for NC(=O)Nc1sc(-c2ccc(F)cc2)cc1C(N)=O at or above 1%?
condition met

Item CC(C)S(=O)(=O)N1CCN(Cc2ccc3c(c2)nc(NC(=O)c2ccsc2)n3C[C@H](O)c2ccccc2)CC1 with %Inh of 1% or above?
condition met

Say whether Cl.Cl.NC[C@H](CC1CCCCC1)NC(=O)c1ccc(-c2ccnc3[nH]ccc23)s1 shows %Inh of 1% or more.
condition not met

Can CS(=O)(=O)Nc1ccc(-c2ccnc3[nH]ccc23)cc1 be said to have %Inh at or above 1%?
condition met

Hi team, for CC(=O)c1c(-c2ccncc2)[nH]c(-c2ccncc2)c1C , is the recorded %Inh at or above 1%?
condition met

Quick check, %Inh >= 1%? CS(=O)c1ccc(-c2coc3ccc(-c4n[nH]c(=O)o4)cc23)cc1 (stereo not drawn)
condition not met

Item NC(=O)c1ccc(-c2cc3ncnc(SCC(=O)O)c3s2)cc1 with %Inh of 1% or above?
condition not met

Is %Inh at least 1%? Consider COC(=O)c1cccc(NC(=O)NC2CCN(c3ccnc(Nc4cc(OC)c(OC)c(OC)c4)n3)C2)c1 (stereo not drawn)
condition not met

API: above_or_equal(metric=%Inh, cutoff=1%) for item CN(c1ccc2c(c1)nc(NCc1ccc(F)cc1)n2C)c1ccnc(Nc2ccc(CS(C)(=O)=O)cc2)n1.Cl
condition met

Could you tell me if the measured %Inh of COc1cc(Nc2nccc(N3CCC(NC(=O)c4cccc(C#N)c4)C3)n2)cc(OC)c1OC (stereo not drawn) reaches 1% or more?
condition not met

# bool: %Inh of Cl.c1ccc(Oc2ccc(Nc3ccnc4cc(-c5ccc(CN6CCNCC6)o5)ccc34)cc2)nc1 >= 1%
condition not met

Exam item: decide whether the reported %Inh for C[C@@H](Oc1cc(-n2cnc3ccc(-c4ccncc4)cc32)sc1C(N)=O)c1ccccc1Cl is at least 1%.
condition met

Say whether CCn1c(-c2nonc2N)nc2cncc(Br)c21 shows %Inh of 1% or more.
condition met

Is the recorded value of %Inh equal to or greater than 1% for this molecule? O=C(Nc1n[nH]c2cc(-c3ccco3)ccc12)C1CC1
condition not met

Is %Inh for Cn1ccc2ncnc(Oc3ccc(NC(=O)Nc4cccc(C(F)(F)F)c4)c(F)c3)c21 at or above 1%?
condition met

Could you verify whether the entry CC(C)c1nc(-c2cccc(NS(=O)(=O)c3ccccc3)c2)c(-c2ccnc(Nc3ccc4c(c3)CN(C)CC4)n2)s1 shows %Inh of no less than 1%?
condition not met

Determine whether measured %Inh meets or exceeds 1% for CSc1nccc(-c2c(-c3ccc(F)cc3)ncn2CCCN2CCOCC2)n1.Cl
condition not met

Check if %Inh >= 1% (inclusive). Item: Cn1ccc2ncnc(Oc3ccc(NC(=O)Nc4cnn(C(C)(C)C)c4)c(Cl)c3)c21
condition met

Decide: %Inh of CN1CCN(CCCNc2nccc(-c3c(-c4ccc(F)cc4)nn4cc(C(N)=O)ccc34)n2)CC1 >= 1%?
condition not met

Would you say Cc1ccc(Nc2ccnc(Nc3ccc4c(c3)CS(=O)(=O)C4)n2)cc1O.Cl shows %Inh at minimum 1%?
condition not met

Has C[C@@H]1CNc2c(sc3ccc4nc(-c5ccc(O)cc5)ccc4c23)C(=O)N1 a recorded %Inh greater than or equal to 1%?
condition met

Dear colleague, could you confirm whether N#Cc1cccc(C(=O)NC2CCN(c3ccnc(Nc4ccc(F)cc4)n3)C2)c1 (stereo not drawn) has %Inh at or above 1%?
condition not met

Does %Inh meet or surpass 1% for COc1ccc(Nc2nccc(N3CCC(NC(=O)c4cccc(C#N)c4)C3)n2)cc1 (stereo not drawn) ?
condition not met

Could you verify whether the entry OCCn1cc(-c2cnc3nnn(Cc4ccc5ncccc5c4)c3n2)cn1 shows %Inh of no less than 1%?
condition met
